system: 786-0 renal; experiment: NCI-60 one-dose screen, 48 h; conditions: 10 µM unless noted
This is part of a sample that, as a whole, favours compounds with a hit. Of some 83,000 tested, about 20% had one in any assay. Activity calls are given as the source filed them. Rule for the calls: active = growth percent below 10; inactive = the rest.
Lab note: assign the record to one of active, inactive

compound	class-name
Cn1c(=O)c2[nH]c(C3CC=CCC3)nc2n(C)c1=O (stereo unspecified)	inactive
COc1ccc(-c2ccc(-c3ccc(-c4ccc(C(=N)N)cc4)s3)s2)cc1OC	inactive
CNc1ccc(Br)c2c1C(=O)c1ccccc1C2=O	inactive
O=C(/C=C/c1ccccc1)c1cccc(O)c1	inactive
COc1cc(NC(=O)SC2=NCCS2)cc(OC)c1	inactive

Look up the recorded call for C=C[C@@H]1C[C@H](O)Cc2cc(F)ccc2N1 in this test.
inactive

Outcome? Clc1ccc2c(NC3CCC(NC4CCCCC4)CC3)ccnc2c1 (stereo unspecified)
inactive

====

tested on: MOLT-4 leukemia; experiment: NCI-60 one-dose screen, 48 h (100 = growth as untreated, 0 = no growth, -100 = all killed); conditions: 10 µM unless noted
This is part of a sample that, as a whole, favours compounds with a hit. Of some 83,000 tested, about 20% had one in any assay.
Classification field: y = growth at or over 70%; n = growth under 70%.

Some solved entries appear below for comparison.
molecule	measured-on	class-name
O=C1NN(C(=O)c2ccc(Cl)cc2)C(c2ccccc2)=N/C1=C\c1cn(-c2ccccc2)nc1-c1ccccc1	MOLT-4 leukemia	y
O=C1C(Cl)=C(Nc2ccccn2)C(=O)c2ccccc21	MOLT-4 leukemia	n
Oc1ccc(Cl)cc1-c1cc(-c2ccc(F)cc2)n[nH]1	MOLT-4 leukemia	n
O=C(NNC(=S)Nc1ccccc1)c1cc2ccc1CCc1ccc(cc1)CC2	MOLT-4 leukemia	n
N#C/C(=C1C=C/C(=N/O)C(Cl)=C/1)c1ccc(Cl)cc1	MOLT-4 leukemia	n

Read the next record carefully.
hey, is growth for this one >= 70%? COc1ccc(-n2c(=O)sc3c(Cl)nc(C)nc32)c(OC)c1
y

====

tested on: HCT-116 colon; test: NCI-60 one-dose screen, 48 h (100 = growth as untreated, 0 = no growth, -100 = all killed); conditions: 10 µM unless noted
Compounds without any hit were thinned out: in the full panel of roughly 83,000, 20% have a hit.
# reported growth; entries follow
State just the number; it will be interpreted in %.

molecule	units	growth
CCOC(=O)c1c(NS(=O)(=O)c2ccc(C)cc2)sc2c1CCC1(C2)OCCO1	%	95.9
Cc1ccc(-c2cc3nc(-c4ccccc4)nc(C(Cl)Cl)n3n2)cc1	%	-87.6
O=c1cc(Cc2ccc([N+](=O)[O-])cc2)[nH]c(=O)[nH]1	%	103
CCCCOc1ccc(/C=C2/SC(N3CCCC3)=NC2=O)cc1	%	92.2
Cc1ccc(C(=O)NCCCNc2nccc(-n3ccc4cccnc43)n2)cc1	%	93.7

Entry under test: COc1ccc(/C=C\c2cc(OC)c(OC)c(OC)c2)cc1OC(=O)c1cccc(Cn2cc(CCOC(=O)c3cccc(Cn4nnc5c4C(=O)c4ccccc4C5=O)c3)nn2)c1 . Its growth was 6.52

Reported growth of Cc1ccc(S(=O)(=O)NCCNc2cc(-c3cn(C(C)(C)C)nc3-c3cccc(O)c3)ccn2)cc1 : 62.1

====

tested on: MDA-MB-231 breast; experiment: NCI-60 one-dose screen, 48 h (100 = growth as untreated, 0 = no growth, -100 = all killed); details: 10 µM unless noted
Compounds without any hit were thinned out: in the full panel of roughly 83,000, 20% have a hit.
Let's look at some molecules and their measured growth.
Write the answer as a number in %, unit excluded.

The examples below pair each entry with its known result.
molecule	growth (%)
COc1ccc(-c2nc3sccn3c2/C=C/C(=O)c2cc(F)cc(F)c2)cc1	62.6
COc1cc(C(=O)/C=C/c2ccc3nc(-c4cc(F)cc(F)c4)sc3c2)cc(OC)c1OC	84.2
O=C(Nc1cccc(-n2cc(-c3ccncc3)c(-c3ccc(Cl)c(O)c3)n2)c1)Nc1ccc(Cl)c(C(F)(F)F)c1	-36.4
O=C(Nc1cccc(-n2cc(-c3ccncc3)c(-c3ccc(Cl)c(O)c3)n2)c1)Nc1cccc(C(F)(F)F)c1	21.3
N#Cc1ccc(N2Cc3ccccc3OC3=C2C(=O)c2c(O)ccc(O)c2C3=O)cc1	-8.93
C/C=C(\C)C(C(=O)NC1CCCCC1)N(C(=O)C1CCc2cc(F)ccc2O1)c1ccc(Cl)cc1 (stereo not given)	103
CCN(CC)CCCC(C)Nc1c2ccc(Cl)cc2nc2cc(OC)c(OC)cc12 (stereo not given)	-34.3
COC(=O)c1cccc2c1N(C)c1c(cccc1C(=O)OC)CC2	111
COc1ccc(-c2c(N)n[nH]c2-c2cc(OC)c(OC)c(OC)c2)cc1	28

// next entry
Assay MDA-MB-231 breast, sample CC(C)(C)Nc1c(-c2cccs2)nc2ncccn12 , growth read: 108
